- Test system: Escherichia coli TOP10;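 note: peptides expressed intracellularly from a pBAD plasmid library in pooled LB shake-flask culture, induced with 0.3% L-arabinose, DNA abundance read by NGS, three biological replicates, DESeq2 with apeglm shrinkage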
- experiment: shrunken log2 fold change of peptide-encoding DNA abundance (4.5 h post-induction vs induction); higher = less antimicrobial activity (less host growth inhibition)
- experimental conditions: time post-induction: 4.5 h; library: site-saturation at positions 5, 18, 19, 20
observable: shrunken log2 fold change

>>> test_result("RRIRSRPPRLPRPRPRPFSNPRP")
-0.218
>>> test_result("RRIRARPPRLPRPRPRPYWHPRP")
-0.241
>>> test_result("RRIRNRPPRLPRPRPRPAPDPRP")
0.147
>>> test_result("RRIRRRPPRLPRPRPRPYTFPRP")
-0.0103
>>> test_result("RRIRPRPPRLPRPRPRPWYSPRP")
-0.22
>>> test_result("RRIRTRPPRLPRPRPRPNQHPRP")
-0.354
>>> test_result("RRIRSRPPRLPRPRPRPSVYPRP")
-0.81
>>> test_result("RRIRRRPPRLPRPRPRPFKCPRP")
-0.135
>>> test_result("RRIRLRPPRLPRPRPRPFIWPRP")
0.112
>>> test_result("RRIRARPPRLPRPRPRPQKAPRP")
0.0481
>>> test_result("RRIRYRPPRLPRPRPRPQFHPRP")
-1.09
